Test system: 485176-168-R4-J1-PDC complex spheroid growth
Assay: Anticancer human tumor 485176-168-R4-J1-PDC patient-derived pancreatic adenocarcinoma cell line growth inhibition [RAS]
Settings: second compound 0.003 µM; first compound 1 µM; stronger effect = lower value
Reported metric: viability, T/C (%)
Give your result in % as a bare value.

Known viability, T/C results, listed for orientation:
CC(=O)OC12COC1CC(O)C1(C)C(=O)C(O)C3=C(C)C(OC(=O)C(O)C(NC(=O)OC(C)(C)C)c4ccccc4)CC(O)(C(OC(=O)c4ccccc4)C21)C3(C)C (stereo not drawn) + CCn1c(-c2cccnc2C(C)OC)c2c3cc(ccc31)N1CCOC(CC(NC(=O)C(C(C)C)N(C)C(=O)C3(F)CCN(C(=O)C#CC(C)(C)N(C)C)CC3)C(=O)N3CCCC(N3)C(=O)OCC(C)(C)C2)C1 :: 14
CC(C)NCC(C(=O)N1CCN(c2ncnc3c2C(C)CC3O)CC1)c1ccc(Cl)cc1 (stereo not drawn) + CCn1c(-c2cccnc2C(C)OC)c2c3cc(ccc31)N1CCOC(CC(NC(=O)C(C(C)C)N(C)C(=O)C3(F)CCN(C(=O)C#CC(C)(C)N(C)C)CC3)C(=O)N3CCCC(N3)C(=O)OCC(C)(C)C2)C1 :: 59.1

**Q:** Using 485176-168-R4-J1-PDC complex spheroid growth as the test system, report measured viability, T/C of CCN1CCN(Cc2ccc(Nc3ncc(F)c(-c4cc(F)c5nc(C)n(C(C)C)c5c4)n3)nc2)CC1 + CCn1c(-c2cccnc2C(C)OC)c2c3cc(ccc31)N1CCOC(CC(NC(=O)C(C(C)C)N(C)C(=O)C3(F)CCN(C(=O)C#CC(C)(C)N(C)C)CC3)C(=O)N3CCCC(N3)C(=O)OCC(C)(C)C2)C1 .
**A:** 67.8

###

System: 485176-168-R4-J1-PDC complex spheroid growth
Assay: Anticancer human tumor 485176-168-R4-J1-PDC cell line growth inhibition [RAS];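 note: spheroids exposed to compounds for seven days before readout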;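 for viability, T/C: luminescence viability expressed relative to DMSO vehicle wells set as 100%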
Conditions: second compound 1 µM; first compound 0.03 µM; stronger effect = lower value
Reported metric: viability, T/C (%)
Give your result in % as a bare value.

Known viability, T/C results, listed for orientation:
CCc1c2c(nc3ccc(O)cc13)-c1cc3c(c(=O)n1C2)COC(=O)[C@]3(O)CC + C=CC(=O)N1CCN(c2nc(OCC3CCCN3C)nc3c(F)c(-c4nc(N)cc(C)c4C(F)(F)F)c(Cl)cc23)C(C)C1 :: 22.7
CCc1c2c(nc3ccc(O)cc13)-c1cc3c(c(=O)n1C2)COC(=O)[C@]3(O)CC + C#Cc1c(F)ccc2cc(O)cc(-c3ncc4c(N5CC6CCC(C5)N6)nc(OCC56CCCN5CC(F)C6)nc4c3F)c12 :: 38.6
CC1(C)CCC(Nc2ncc(C(F)(F)F)c(-c3c[nH]c4c(P(C)(C)=O)c(C#N)ccc34)n2)CN1 (centres undefined) + C#Cc1c(F)ccc2cc(O)cc(-c3ncc4c(N5CC6CCC(C5)N6)nc(OCC56CCCN5CC(F)C6)nc4c3F)c12 :: 68.1

**Q:** For the compound CC1(C)CCC(Nc2ncc(C(F)(F)F)c(-c3c[nH]c4c(P(C)(C)=O)c(C#N)ccc34)n2)CN1 (centres undefined) + C=CC(=O)N1CCN(c2nc(OCC3CCCN3C)nc3c(F)c(-c4nc(N)cc(C)c4C(F)(F)F)c(Cl)cc23)C(C)C1 , report viability, T/C.
**A:** 57

###

Test system: 485176-168-R4-J1-PDC complex spheroid growth
Assay: Anticancer human tumor 485176-168-R4-J1-PDC cell line growth inhibition [RAS];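 note: spheroids exposed to compounds for seven days before readout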;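 for viability, T/C: luminescence viability expressed relative to DMSO vehicle wells set as 100%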
Conditions: compound 0.00949 µM; stronger effect = lower value
Reported metric: viability, T/C

Known viability, T/C results, listed for orientation:
CCn1c(-c2cc(N3CCN(C)CC3)cnc2C(C)OC)c2c3cc(ccc31)-c1csc(n1)CC(NC(=O)C1CC1C)C(=O)N1CCCC(N1)C(=O)OCC(C)(C)C2 (centres undefined) :: 92.2% [middle of 8 runs]
CCn1c(-c2cccnc2C(C)OC)c2c3cc(ccc31)N1CCOC(CC(NC(=O)C(C(C)C)N(C)C(=O)C3(F)CCN(C(=O)C#CC(C)(C)N(C)C)CC3)C(=O)N3CCCC(N3)C(=O)OCC(C)(C)C2)C1 (centres undefined) :: 107% [middle of 8 runs]
CCc1c2c(nc3ccc(O)cc13)-c1cc3c(c(=O)n1C2)COC(=O)[C@]3(O)CC :: 66% [middle of 4 runs]

Kindly review the next compound as well.
**Q:** For the compound CC1(C)CCC(Nc2ncc(C(F)(F)F)c(-c3c[nH]c4c(P(C)(C)=O)c(C#N)ccc34)n2)CN1 (centres undefined) , report viability, T/C.
**A:** 77.3% [middle of 4 runs]

###

Entries annotated with measured pIC50
System: 485176-168-R4-J1-PDC complex spheroid growth
Assay: Anticancer human tumor 485176-168-R4-J1-PDC cell line growth inhibition [RAS];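 note: spheroids exposed to compounds for seven days before readout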
Details: curve of first compound; second compound 0.03 µM
For clarity, pIC50 is expressed as the negative log10 of concentration in mol/L.

CC(Nc1ccc2c(c1)OCCn1cc(N3C(=O)OCC3C(F)F)nc1-2)C(N)=O (centres undefined) + CCn1c(-c2cc(N3CCN(C)CC3)cnc2C(C)OC)c2c3cc(ccc31)-c1csc(n1)CC(NC(=O)C1CC1C)C(=O)N1CCCC(N1)C(=O)OCC(C)(C)C2 :: 5.12

**Q:** For the molecule CCC(CC)c1cc(NC2CCC(N)C2)n2nccc2n1 (centres undefined) + CCn1c(-c2cc(N3CCN(C)CC3)cnc2C(C)OC)c2c3cc(ccc31)-c1csc(n1)CC(NC(=O)C1CC1C)C(=O)N1CCCC(N1)C(=O)OCC(C)(C)C2 , report pIC50.
**A:** 6.03

**Q:** For the molecule CC1(C)CCC(Nc2ncc(C(F)(F)F)c(-c3c[nH]c4c(P(C)(C)=O)c(C#N)ccc34)n2)CN1 (centres undefined) + CCn1c(-c2cccnc2C(C)OC)c2c3cc(ccc31)N1CCOC(CC(NC(=O)C(C(C)C)N(C)C(=O)C3(F)CCN(C(=O)C#CC(C)(C)N(C)C)CC3)C(=O)N3CCCC(N3)C(=O)OCC(C)(C)C2)C1 , report pIC50.
**A:** 7.58

###

Test system: 485176-168-R4-J1-PDC complex spheroid growth
Assay: Anticancer human tumor 485176-168-R4-J1-PDC cell line growth inhibition [RAS];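 note: spheroids exposed to compounds for seven days before readout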;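 for viability, T/C: luminescence viability expressed relative to DMSO vehicle wells set as 100%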
Details: second compound 0.0949 µM; first compound 0.0316 µM; stronger effect = lower value
Reported metric: viability, T/C (%)
Give your result in % as a bare value.

Known viability, T/C results, listed for orientation:
C=CC(=O)Nc1cc(Nc2nccc(-c3cn(C)c4ccccc34)n2)c(OC)cc1N(C)CCN(C)C + CCn1c(-c2cc(N3CCN(C)CC3)cnc2C(C)OC)c2c3cc(ccc31)-c1csc(n1)CC(NC(=O)C1CC1C)C(=O)N1CCCC(N1)C(=O)OCC(C)(C)C2 :: 81.2
CC(Nc1ccc2c(c1)OCCn1cc(N3C(=O)OCC3C(F)F)nc1-2)C(N)=O (stereo unspecified) + CCn1c(-c2cc(N3CCN(C)CC3)cnc2C(C)OC)c2c3cc(ccc31)-c1csc(n1)CC(NC(=O)C1CC1C)C(=O)N1CCCC(N1)C(=O)OCC(C)(C)C2 :: 66.9
CC(=O)OC12COC1CC(O)C1(C)C(=O)C(O)C3=C(C)C(OC(=O)C(O)C(NC(=O)OC(C)(C)C)c4ccccc4)CC(O)(C(OC(=O)c4ccccc4)C21)C3(C)C (stereo unspecified) + CCn1c(-c2cc(N3CCN(C)CC3)cnc2C(C)OC)c2c3cc(ccc31)-c1csc(n1)CC(NC(=O)C1CC1C)C(=O)N1CCCC(N1)C(=O)OCC(C)(C)C2 :: 14.2

**Q:** Using 485176-168-R4-J1-PDC complex spheroid growth as the test system, report measured viability, T/C of Nc1ccn(C2OC(CO)C(O)C2(F)F)c(=O)n1 (stereo unspecified) + CCn1c(-c2cc(N3CCN(C)CC3)cnc2C(C)OC)c2c3cc(ccc31)-c1csc(n1)CC(NC(=O)C1CC1C)C(=O)N1CCCC(N1)C(=O)OCC(C)(C)C2 .
**A:** 20.7

**Q:** Using 485176-168-R4-J1-PDC complex spheroid growth as the test system, report measured viability, T/C of O=C(c1ccc(F)c(F)c1Nc1ccc(I)cc1F)N1CC(O)([C@@H]2CCCCN2)C1 + CCn1c(-c2cccnc2C(C)OC)c2c3cc(ccc31)N1CCOC(CC(NC(=O)C(C(C)C)N(C)C(=O)C3(F)CCN(C(=O)C#CC(C)(C)N(C)C)CC3)C(=O)N3CCCC(N3)C(=O)OCC(C)(C)C2)C1 .
**A:** 68.6

**Q:** Using 485176-168-R4-J1-PDC complex spheroid growth as the test system, report measured viability, T/C of C=CC(=O)Nc1cc(Nc2nccc(-c3cn(C)c4ccccc34)n2)c(OC)cc1N(C)CCN(C)C + CCn1c(-c2cccnc2C(C)OC)c2c3cc(ccc31)N1CCOC(CC(NC(=O)C(C(C)C)N(C)C(=O)C3(F)CCN(C(=O)C#CC(C)(C)N(C)C)CC3)C(=O)N3CCCC(N3)C(=O)OCC(C)(C)C2)C1 .
**A:** 81.6
